assay: in vivo; settings: Sprague-Dawley, rat, iv, 3 mg/kg
Here, each record is paired with measured half-life at 24 h data.
Write the number in min without appending the unit.

| Smiles Text | Recorded Metric | Unit | Test Value |
| --- | --- | --- | --- |
| Cc1cnc(Nc2ccc(OCCCCCCC(=O)NO)c(F)c2)nc1Nc1cccc(S(=O)(=O)NC(C)(C)C)c1 | half-life at 24 h | min | 6.72 |

The compound listed as `Cc1cnc(Nc2ccc(OCCCCCCC(=O)NO)cc2)nc1Nc1cccc(S(=O)(=O)NC(C)(C)C)c1` shows half-life at 24 h equal to 7.68

---

Quick reference for Vd at 24 h among some compounds
assay: in vivo; conditions: Sprague-Dawley, rat, iv, 3 mg/kg
Could you give me the number in L/kg? Just the number is fine.

| Smiles Text | Test Value |
| --- | --- |
| Cc1cnc(Nc2ccc(OCCCCCCC(=O)NO)cc2)nc1Nc1cccc(S(=O)(=O)NC(C)(C)C)c1 | 0.845 |

// next item, Vd at 24 h requested
// Vd at 24 h lookup, compound = `Cc1cnc(Nc2ccc(OCCCCCCC(=O)NO)c(F)c2)nc1Nc1cccc(S(=O)(=O)NC(C)(C)C)c1` , result: 0.951
